# ASSAY_TEXT: MTT cytotoxicity assay, MDA-MB-231 cells
# Assay type: cell-based, human
# MEASUREMENT_CONTEXT: % Cytotoxicity, MDA-MB-231, 25 μM Mastoparan, MTT, 24 h, mean ± SEM
QUANTITY_NAME: cytotoxicity (%)
A number alone suffices; assume %.

Any idea what its cytotoxicity is? The compound is `CC[C@H](C)[C@H](N)C(=O)N[C@@H](CC(N)=O)C(=O)N[C@@H](CC(C)C)C(=O)N[C@@H](CCCCN)C(=O)N[C@@H](C)C(=O)N[C@@H](CC(C)C)C(=O)N[C@@H](C)C(=O)N[C@@H](C)C(=O)N[C@@H](CC(C)C)C(=O)N[C@@H](C)C(=O)N[C@@H](CCCCN)C(=O)N[C@@H](CCCCN)C(=O)N[C@H](C(=O)N[C@@H](CC(C)C)C(N)=O)[C@@H](C)CC`
62
